# System: Candida albicans
# experiment.notes: Antifungal activity against Candida albicans after 48 hrs […]
# Type: functional
quantity: MIC (mg/L)

>  <compound>
Fc1cc(-c2nnc3n2N=C(Nc2ccc(Cl)cc2Cl)CS3)c(Cl)cc1Cl

>  <unit.string>
mg/L

>  <MIC>
12.5

$$$$
>  <compound>
Nn1c(SCC(=O)Nc2ccccc2C(F)(F)F)nnc1-c1cc(F)c(Cl)cc1Cl

>  <unit.string>
mg/L

>  <MIC>
6.25

$$$$
>  <compound>
C[C@@H]1[C@H](O)[C@@H](C)/C=C/C=C/C=C/C=C/C=C/C=C/C=C/[C@H](O[C@@H]2O[C@H](C)[C@@H](O)[C@H](N)[C@@H]2O)C[C@@H]2O[C@](O)(C[C@@H](O)C[C@@H](O)[C@H](O)CC[C@@H](O)C[C@@H](O)CC(=O)O[C@H]1C)C[C@H](O)[C@H]2C(=O)O [AMPHOTERICIN B]

>  <unit.string>
mg/L

>  <MIC>
6.25

$$$$
>  <compound>
Cc1cccc(NC(=O)CSc2nnc(-c3cc(F)c(Cl)cc3Cl)n2N)c1C

>  <unit.string>
mg/L

>  <MIC>
6.25

$$$$
>  <compound>
Fc1ccc(NC2=Nn3c(nnc3-c3cc(F)c(Cl)cc3Cl)SC2)cc1

>  <unit.string>
mg/L

>  <MIC>
12.5

$$$$

1: Fc1cc(-c2nnc3n2N=C(Nc2ccccc2C(F)(F)F)CS3)c(Cl)cc1Cl
2: Cc1cc(C)c(NC2=Nn3c(nnc3-c3cc(F)c(Cl)cc3Cl)SC2)c(C)c1
Exercise: Of 1 and 2 , whose reported MIC is numerically smaller? Use the label to indicate which entry you chose.
Solution: 1
(1: 6.25 mg/L, 2: 12.5 mg/L)

* * *

# Test system: Streptococcus pyogenes
# experiment.notes: Antibacterial activity against Streptococcus pyogenes after 24 hrs by broth dilution technique
# Format: functional
quantity: MIC (µg/mL)

>  <smi>
Fc1cc(-c2nnc3n2N=C(Nc2ccccc2C(F)(F)F)CS3)c(Cl)cc1Cl

>  <unit.string>
µg/mL

>  <test.result>
6.25

$$$$
>  <smi>
Nn1c(SCC(=O)Nc2ccc(F)cc2)nnc1-c1cc(F)c(Cl)cc1Cl

>  <unit.string>
µg/mL

>  <test.result>
6.25

$$$$
>  <smi>
Fc1cc(-c2nnc3n2N=C(Nc2ccc(Cl)cc2)CS3)c(Cl)cc1Cl

>  <unit.string>
µg/mL

>  <test.result>
6.25

$$$$

A: Nn1c(SCC(=O)Nc2ccc(F)c(Cl)c2)nnc1-c1cc(F)c(Cl)cc1Cl
B: Cc1ccc(NC2=Nn3c(nnc3-c3cc(F)c(Cl)cc3Cl)SC2)c(C)c1
Exercise: Returns: the label, A or B , whose recorded MIC is the lower number. # answer = label of selected item
Solution: A

* * *

# Tested on: Trichophyton mentagrophytes
# experiment.notes: Antifungal activity against Trichophyton mentagrophytes after 48 hrs […]
# Format: functional
quantity: MIC (µg/mL)

Some solved entries appear below for comparison.
>  <smi>
Cc1ccc(NC(=O)CSc2nnc(-c3cc(F)c(Cl)cc3Cl)n2N)cc1

>  <MIC, µg/mL>
6.25

$$$$
>  <smi>
Fc1cc(-c2nnc3n2N=C(Nc2ccc(Cl)cc2)CS3)c(Cl)cc1Cl

>  <MIC, µg/mL>
12.5

$$$$
>  <smi>
Nn1c(SCC(=O)Nc2ccc(Cl)cc2)nnc1-c1cc(F)c(Cl)cc1Cl

>  <MIC, µg/mL>
25

$$$$

I: Nn1c(SCC(=O)Nc2cc(Cl)c(Cl)cc2Cl)nnc1-c1cc(F)c(Cl)cc1Cl
II: Nn1c(SCC(=O)Nc2c(Cl)cccc2Cl)nnc1-c1cc(F)c(Cl)cc1Cl
III: Cc1ccc(NC2=Nn3c(nnc3-c3cc(F)c(Cl)cc3Cl)SC2)c(C)c1
Exercise: Please give the order of these compounds when sorted by MIC, largest value leading. Give the labels in the order requested.
Solution: II, III, I
(II: 25 µg/mL, III: 12.5 µg/mL, I: 6.25 µg/mL)

P: Cc1cccc(C)c1NC1=Nn2c(nnc2-c2cc(F)c(Cl)cc2Cl)SC1
Q: COc1ccc(NC2=Nn3c(nnc3-c3cc(F)c(Cl)cc3Cl)SC2)cc1
R: Fc1cc(-c2nnc3n2N=C(Nc2cccc(Cl)c2Cl)CS3)c(Cl)cc1Cl
Exercise: // smallest MIC at index 0, largest at the end Reply format: the labels, ordered as requested.
Solution: P, Q, R

* * *

# Tested on: Streptococcus pyogenes
# experiment.notes: Antibacterial activity against Streptococcus pyogenes after 24 hrs by broth dilution technique
# Format: functional
quantity: MIC (µg/mL)

Below, each entry is followed by its recorded MIC result.
>  <compound>
Cc1cccc(NC2=Nn3c(nnc3-c3cc(F)c(Cl)cc3Cl)SC2)c1C

>  <test.result>
25

$$$$
>  <compound>
O=C(O)c1cn(C2CC2)c2cc(N3CCNCC3)c(F)cc2c1=O [CIPROFLOXACIN]

>  <test.result>
6.25

$$$$
>  <compound>
Nn1c(SCC(=O)Nc2c(Cl)cccc2Cl)nnc1-c1cc(F)c(Cl)cc1Cl

>  <test.result>
6.25

$$$$
>  <compound>
COc1ccc(NC2=Nn3c(nnc3-c3cc(F)c(Cl)cc3Cl)SC2)cc1

>  <test.result>
12.5

$$$$

A: Fc1ccc(NC2=Nn3c(nnc3-c3cc(F)c(Cl)cc3Cl)SC2)cc1
B: Cc1cc(C)c(NC2=Nn3c(nnc3-c3cc(F)c(Cl)cc3Cl)SC2)c(C)c1
C: Nn1c(SCC(=O)Nc2ccc(Cl)cc2)nnc1-c1cc(F)c(Cl)cc1Cl
Exercise: Hello, I need these entries ordered by MIC, highest reading first. Thanks! Write the labels out in the order the request specifies.
Solution: C, B, A
(C: 25 µg/mL, B: 12.5 µg/mL, A: 6.25 µg/mL)

1: Cc1ccc(NC(=O)CSc2nnc(-c3cc(F)c(Cl)cc3Cl)n2N)cc1
2: Fc1cc(-c2nnc3n2N=C(Nc2c(Cl)cccc2Cl)CS3)c(Cl)cc1Cl
Exercise: Which item exceeds the other in MIC, 1 or 2 ? Answer = label.
Solution: 2
(2: 12.5 µg/mL, 1: 6.25 µg/mL)

* * *

# Tested on: Candida albicans
# experiment.notes: Antifungal activity against Candida albicans assessed as inhibition zone diameter […] by agar dilution method
# Assay type: functional
# inhibition zone (IZ) annotations
Quick reminder: number only, in mm, skip the unit.

Example compounds with recorded inhibition zone (IZ):
>  <smi>
Cc1ccc(NC(=O)CSc2nnc(-c3cc(F)c(Cl)cc3Cl)n2N)cc1

>  <system.name>
Candida albicans

>  <quantity>
inhibition zone (IZ)

>  <unit.string>
mm

>  <test.result>
18

$$$$
>  <smi>
Fc1cc(-c2nnc3n2N=C(Nc2ccc(Cl)cc2)CS3)c(Cl)cc1Cl

>  <system.name>
Candida albicans

>  <quantity>
inhibition zone (IZ)

>  <unit.string>
mm

>  <test.result>
16

$$$$

Exercise: For the compound shown here, Cc1cccc(C)c1NC1=Nn2c(nnc2-c2cc(F)c(Cl)cc2Cl)SC1 , give the reported inhibition zone (IZ).
Solution: 15

* * *

# Test system: Trichophyton mentagrophytes
# experiment.notes: Antifungal activity against Trichophyton mentagrophytes assessed as inhibition zone diameter […] by agar dilution method
# Type: functional
quantity: inhibition zone (IZ) (mm)
Just the number please, in mm, no unit attached.

# example entries with known answers
>  <molecule>
Cc1ccc(NC(=O)CSc2nnc(-c3cc(F)c(Cl)cc3Cl)n2N)c(C)c1

>  <unit.string>
mm

>  <test.result>
12

$$$$
>  <molecule>
Nn1c(SCC(=O)Nc2ccccc2C(F)(F)F)nnc1-c1cc(F)c(Cl)cc1Cl

>  <unit.string>
mm

>  <test.result>
18

$$$$
>  <molecule>
Fc1cc(-c2nnc3n2N=C(Nc2ccc(Cl)cc2)CS3)c(Cl)cc1Cl

>  <unit.string>
mm

>  <test.result>
11

$$$$

Exercise: Which measured inhibition zone (IZ) belongs to Nn1c(SCC(=O)Nc2ccc(F)cc2)nnc1-c1cc(F)c(Cl)cc1Cl , tested on Trichophyton mentagrophytes?
Solution: 17

Exercise: Record lookup: for Trichophyton mentagrophytes, what inhibition zone (IZ) belongs to Nn1c(SCC(=O)Nc2c(Cl)cccc2Cl)nnc1-c1cc(F)c(Cl)cc1Cl ?
Solution: 10

Exercise: Hello, I am looking for reported inhibition zone (IZ) with Trichophyton mentagrophytes for Fc1cc(-c2nnc3n2N=C(Nc2cc(Cl)c(Cl)cc2Cl)CS3)c(Cl)cc1Cl . Could you help?
Solution: 18

Exercise: Notebook entry, Trichophyton mentagrophytes assay: inhibition zone (IZ) of Fc1ccc(NC2=Nn3c(nnc3-c3cc(F)c(Cl)cc3Cl)SC2)cc1Cl = ?
Solution: 10

Exercise: Fill in the recorded inhibition zone (IZ) for this molecule, with Trichophyton mentagrophytes as test system: Cc1cccc(NC(=O)CSc2nnc(-c3cc(F)c(Cl)cc3Cl)n2N)c1C
Solution: 16
